# measurement.target: human TSHR (Homo sapiens, UniProt P16473)
# Construct: expressed in transfected cells
# Sequence (P16473 21-764): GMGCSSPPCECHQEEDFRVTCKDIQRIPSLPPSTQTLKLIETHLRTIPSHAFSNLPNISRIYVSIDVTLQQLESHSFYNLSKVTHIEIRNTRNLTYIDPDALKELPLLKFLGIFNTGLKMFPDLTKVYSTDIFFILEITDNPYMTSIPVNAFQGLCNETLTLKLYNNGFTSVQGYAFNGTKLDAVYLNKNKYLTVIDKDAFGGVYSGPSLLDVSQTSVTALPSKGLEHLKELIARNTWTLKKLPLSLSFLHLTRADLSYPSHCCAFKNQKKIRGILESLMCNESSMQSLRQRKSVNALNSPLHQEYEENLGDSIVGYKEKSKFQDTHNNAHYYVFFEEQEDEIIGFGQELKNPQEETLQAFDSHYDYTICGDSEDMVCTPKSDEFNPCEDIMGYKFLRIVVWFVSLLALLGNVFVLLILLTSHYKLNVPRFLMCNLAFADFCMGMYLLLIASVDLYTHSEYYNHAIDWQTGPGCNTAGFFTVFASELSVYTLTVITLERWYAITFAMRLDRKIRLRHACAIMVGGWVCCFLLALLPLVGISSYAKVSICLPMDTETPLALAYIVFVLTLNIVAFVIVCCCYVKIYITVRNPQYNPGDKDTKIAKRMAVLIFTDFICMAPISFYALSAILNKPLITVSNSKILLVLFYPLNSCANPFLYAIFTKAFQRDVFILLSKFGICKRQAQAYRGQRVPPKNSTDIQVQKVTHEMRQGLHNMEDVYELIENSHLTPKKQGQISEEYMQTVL
# assay.details: Homogeneous Time Resolved Fluorescence (HTRF) cAMP assay, TSHR cell line
# Format: cell-based
# cond: HTRF cAMP, TSHR cell line, 30 minute incubation
parameter: outcome

Use these answered entries as a reference point.
compound="COc1ccc(C2Nc3ccccc3C(=O)N2Cc2ccco2)cc1COc1ccc([N+](=O)[O-])cc1 (centres unmarked) [Structure 245]" result=inactive
compound="COc1ccc(C2Nc3ccccc3C(=O)N2Cc2ccccc2)cc1COc1ccc(C)cc1 (centres unmarked) [Structure 196]" result=inactive
compound="COc1ccc(C2Nc3ccccc3C(=O)N2Cc2ccccc2)cc1COc1cccc(Cl)c1 (centres unmarked) [Structure 278]" result=inactive
compound="COc1ccc(C2Nc3ccccc3C(=O)N2Cc2ccccc2)cc1COc1ccc(Cl)cc1 (centres unmarked) [Structure 238]" result=inactive
compound="COc1ccc(CN(Cc2ccccc2)C(=O)c2ccccc2O)cc1 [Structure 271]" result=inactive

Asked: Field request: outcome | item: Nc1ccccc1C(=O)NCc1ccco1 [Structure 153]
Given back: inactive

Asked: State the recorded outcome for this entry: O=C1CC(c2ccco2)CC2=C1C(c1ccncc1)n1nc(C(F)(F)F)nc1C2 (centres unmarked) [Structure 244]
Given back: inactive

Asked: Name the recorded outcome for COc1ccc(C2Nc3ccc(Cl)cc3C(=O)N2Cc2ccccc2)cc1COc1ccc(C(N)=O)cc1 (centres unmarked) [Structure 187] .
Given back: inactive

Asked: Form field: reported outcome of O=C1c2ccccc2NC(c2ccccc2)N1Cc1ccco1 (centres unmarked) [Structure 254]
Given back: inactive
